# experimentalTarget: T1, RHPN1, Q8TCX5
# T1 sequence (Q8TCX5 508-602, limits assumed, looked up): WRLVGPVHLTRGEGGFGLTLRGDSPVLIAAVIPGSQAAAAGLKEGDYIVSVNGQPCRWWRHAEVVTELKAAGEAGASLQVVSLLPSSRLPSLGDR
# measurementProtocol: holdup assay
# Parameters: key: below the threshold = too weak to quantify, mostly under pKd 3.1 to 4
# testConditions: plain residues with an end cap or a label only (N-terminal biotin on a linker: ado-ado)
resultType: pKd
Enter a number only.

// known answers, use as guide
[
  {
    "binder": "GQEEQVTTRL [TRPC5, Q9UL62]",
    "readoutNumber": 4.85
  },
  {
    "binder": "LPHPHSTTRV [NLGN2, Q8NFZ4]",
    "readoutNumber": 3.83
  }
]

Here's the next entry for you.
Lookup: Report pKd for VKPQVSESKL [ACOT8, O14734] please.
Found: 4.07
